# credit: PubChem BioAssay AID463074

# Test system: HMLE_sh_eGFP viability, CellTiter-Glo luminescence, 72 h
# protocolSummary: cytotoxicity in HMLE control line with eGFP shRNA, dose response, counter-screen for HMLE_sh_ECad selective toxicity project, cell-based, HMLE_sh_eGFP, luminescence (AID 463074);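 note: counterscreen control line to flag general toxicity for the HMLE_sh_ECad screen; potency for loss of viability as luminescence drops below DMSO wells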;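 active = AC50 no more than tenfold above the top dose tested, or full inhibition at every dose with a flat fit (cut at about 19 µM in these data); inconclusive = flat curve fit with inhibition between 30% and 70%, or poor fit; inactive = AC50 more than tenfold above the top dose tested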
Classes to choose from: T (active), F (inactive)

Completed entries (count: 2):
Cc1cccc(NC(=O)c2ccc(COc3ccc(Cl)cc3Cl)o2)n1; T
Nc1ccc(N2CCN(Cc3ccccc3Cl)CC2)c(Cl)c1; T

Test call, this compound: Cc1cc(C)c2nc(N3CCCC(C(=O)N4CCN(c5ncccn5)CC4)C3)sc2c1 (centres undefined)
T

Note, next up: CN1CCN(CCCNC(=O)c2ccc(/C=C3\Oc4ccccc4N(Cc4ccc(Cl)cc4)C3=O)cc2)CC1
T

Note, next up: O=[N+]([O-])c1ccc(S(=O)(=O)Nc2ccc(-c3csc(-c4ccccc4)n3)cc2)cc1
T
